tested on: MDA-MB-231; assay: Growth inhibition of human MDA-MB-231 cells at 10 uM after 48 hrs by sulforhodamine B assay; assay type: functional; conditions: MDA-MB-231, 48 h, read-out: GI
Lab note: anything with inhibition of growth at 10 µM at or over 40% counts as 1; the rest go in 0.

Below are worked cases with known answers.
O=C(NS(=O)(=O)c1ccc2nc(-c3ccccc3)c(-c3ccccc3)nc2c1)c1ccccc1 :: 0
NC(=S)NNS(=O)(=O)c1ccc2nc(-c3ccccc3)c(-c3ccccc3)nc2c1 :: 0
O=S(=O)(Nc1ccccn1)c1ccc2nc(-c3ccccc3)c(-c3ccccc3)nc2c1 :: 1
COc1ccccc1NS(=O)(=O)c1ccc2nc(-c3ccccc3)c(-c3ccccc3)nc2c1 :: 1
CC(=S)NS(=O)(=O)c1ccc2nc(-c3ccccc3)c(-c3ccccc3)nc2c1 :: 0

IN: Given the entry "O=S(=O)(Nc1ccc(Cl)cc1)c1ccc2nc(-c3ccccc3)c(-c3ccccc3)nc2c1" , answer whether its inhibition of growth at 10 µM meets or surpasses 40%.
OUT: 1

IN: Given the entry "O=S(=O)(Nc1cccc2ccccc12)c1ccc2nc(-c3ccccc3)c(-c3ccccc3)nc2c1" , answer whether its inhibition of growth at 10 µM meets or surpasses 40%.
OUT: 0

----------
tested on: HCT-116; experiment: Growth inhibition of human HCT116 cells at 10 uM after 48 hrs by sulforhodamine B assay; assay type: functional; conditions: HCT-116, 48 h, read-out: GI
Lab note: anything with inhibition of growth at 10 µM at or over 50% counts as met; the rest go in not met.

O=C(NS(=O)(=O)c1ccc2nc(-c3ccccc3)c(-c3ccccc3)nc2c1)c1ccccc1 :: not met
NC(=S)NNS(=O)(=O)c1ccc2nc(-c3ccccc3)c(-c3ccccc3)nc2c1 :: not met
O=S(=O)(Nc1ccccn1)c1ccc2nc(-c3ccccc3)c(-c3ccccc3)nc2c1 :: met
CC(=S)NS(=O)(=O)c1ccc2nc(-c3ccccc3)c(-c3ccccc3)nc2c1 :: not met
O=S(=O)(Nc1ccc(Cl)cc1)c1ccc2nc(-c3ccccc3)c(-c3ccccc3)nc2c1 :: met

Note: attention shifts to another entry.
IN: Given the entry "COc1ccccc1NS(=O)(=O)c1ccc2nc(-c3ccccc3)c(-c3ccccc3)nc2c1" , answer whether its inhibition of growth at 10 µM meets or surpasses 50%.
OUT: met

----------
test system: HL-60(TB); test: Growth inhibition of human HL-60(TB) cells at 10 uM after 48 hrs by sulforhodamine B assay; type: functional; settings: HL-60, 48 h, read-out: GI
Lab note: anything with inhibition of growth at 10 µM at or over 60% counts as Yes; the rest go in No.

Below are worked cases with known answers.
CC(=S)NS(=O)(=O)c1ccc2nc(-c3ccccc3)c(-c3ccccc3)nc2c1 :: No
O=S(=O)(Nc1ccc(Cl)cc1)c1ccc2nc(-c3ccccc3)c(-c3ccccc3)nc2c1 :: Yes
O=S(=O)(Nc1cccc2ccccc12)c1ccc2nc(-c3ccccc3)c(-c3ccccc3)nc2c1 :: Yes

IN: Given the entry "O=C(NS(=O)(=O)c1ccc2nc(-c3ccccc3)c(-c3ccccc3)nc2c1)c1ccccc1" , answer whether its inhibition of growth at 10 µM meets or surpasses 60%.
OUT: No

IN: Given the entry "NC(=S)NNS(=O)(=O)c1ccc2nc(-c3ccccc3)c(-c3ccccc3)nc2c1" , answer whether its inhibition of growth at 10 µM meets or surpasses 60%.
OUT: No

IN: Given the entry "O=S(=O)(Nc1ccccn1)c1ccc2nc(-c3ccccc3)c(-c3ccccc3)nc2c1" , answer whether its inhibition of growth at 10 µM meets or surpasses 60%.
OUT: Yes

The origin of these recorded values is ChEMBL document CHEMBL2407075.
